Tested on: LXFL 529
Assay: NCI tumour cell line growth inhibition, 48 h
The source made the active and inactive calls. Rule as the data show it: active = GI50 up to about 1.1 µM and inactive = higher.
Give one outcome, nothing more. List: active, inactive

The examples below pair each entry with its known result.
COMPOUND	LABEL_VALUE
CCCOc1ccc(/C=C/c2cc(OC)c(OC)c(OC)c2)cc1	active
COC(=O)C(C(=O)C(=O)Nc1nc2ccc([N+](=O)[O-])cc2s1)c1nc2ccc(Cl)cc2nc1O (centres undefined)	inactive
Cc1cccc(N2C(=O)/C(=C/c3ccc(N(CCC#N)CCC#N)cc3C)N=C2c2cc([N+](=O)[O-])ccc2Cl)c1	inactive
Cn1nc(-c2ccccc2)c(C(=O)/C=C/c2ccccc2)c(N2CCCC2)c1=O	inactive
O=C1C=CC(=O)c2c1cc1ccccc1c2O	inactive
Cc1csc(CCC(N)C(=O)O)n1 (centres undefined)	inactive
Cc1ccc(C(=O)C(C)N)cc1 (centres undefined)	inactive
CC(=O)OCC1OC(n2c(=O)[nH]c(=O)c3nn[nH]c32)C(OC(C)=O)C(OC(C)=O)C1OC(C)=O (centres undefined)	inactive

Problem: Which result was noted for this compound in the test: CC(C)CC(NC(=O)OC(C)(C)C)C(=O)Nc1ccc(Nc2nc(F)nc(-c3c4ccccc4cn3C)n2)cc1 (centres undefined)
Solution: inactive

Problem: Which result was noted for this compound in the test: COC(=O)C1=Cc2cc(OC)c(OC)cc2[C@H](c2ccc(OC)c(OC)c2)C1C(=O)OC (some centres undefined)
Solution: inactive

Problem: Which result was noted for this compound in the test: N#C/C(=C\c1ccc2ccccc2c1)c1ccccc1
Solution: inactive

Problem: Which result was noted for this compound in the test: COC(=O)C1c2cc3c(c(O)c2C(O)CC1(C)O)C(=O)c1c(O)cc2c(c1C3=O)OC1OC2(C)C(O)C(N(C)C)C1O (centres undefined)
Solution: inactive

Problem: Which result was noted for this compound in the test: O=C1C2c3[nH]c4ccccc4c3[C@@H]3CCCCC3C2C(=O)N1c1ccccc1 (some centres undefined)
Solution: inactive

Problem: Which result was noted for this compound in the test: CC1(C)O/C(=C\c2ccccc2)C(=O)/C(=C/c2ccccc2)O1
Solution: inactive

Source of measurements: ChEMBL document CHEMBL1201862
